Catalogue of CC50 at 48 h readings, one per entry.
- assay_text: Cytotoxicity against human HuH7 cells after 2 days by XTT assay
- Assay type: cell-based, Huh-7

{"columns": ["smiles_input", "CC50 at 48 h"],
 "data": [
  ["COC(=O)C1=CC[C@H](n2cc(C)c(=O)[nH]c2=O)O1", "> 992 µM"],
  ["COC(=O)[C@H]1O[C@@H](n2ccc(=O)[nH]c2=O)[C@H](OC)[C@@H]1O", "> 874 µM"],
  ["COC(=O)[C@H]1O[C@@H](n2ccc(=O)[nH]c2=O)[C@H](F)[C@@H]1O", "> 912 µM"]
]}

Input line: Fill in reported CC50 at 48 h for this entry: "COC(=O)[C@H]1O[C@@H](n2cc(C)c(=O)[nH]c2=O)C[C@@H]1Cl"
Output line: > 868 µM

Input line: Fill in reported CC50 at 48 h for this entry: "COC(=O)[C@@H]1C=C[C@H](n2cc(C)c(=O)[nH]c2=O)O1"
Output line: > 992 µM

Input line: Fill in reported CC50 at 48 h for this entry: "CCc1cn([C@@H]2O[C@H](C(N)=O)[C@@H](O)[C@@H]2F)c(=O)[nH]c1=O"
Output line: > 871 µM

Input line: Fill in reported CC50 at 48 h for this entry: "[N-]=[N+]=N[C@H]1C[C@H](n2ccc(=O)[nH]c2=O)O[C@@H]1C(N)=O"
Output line: > 940 µM

Input line: Fill in reported CC50 at 48 h for this entry: "COC(=O)[C@H]1O[C@@H](n2ccc(=O)[nH]c2=O)C[C@@H]1N=[N+]=[N-]"
Output line: > 890 µM

Input line: Fill in reported CC50 at 48 h for this entry: "CCc1cn([C@@H]2O[C@H](C(=O)OC)[C@@H](O)[C@@H]2F)c(=O)[nH]c1=O"
Output line: > 829 µM
